meta.source: ChEMBL document CHEMBL3832068

test: Mean pharmacokinetic parameters for Griseofulvin following single dose administration of unaltered 250 mg ultramicrocrystalline Griseofulvin tablets, with or without applesauce, to 24 healthy volunteers
Type: ADME, organism-based
Parameters: dose 250 mg, route oral
particulars: human, in vivo; dietary status Fasting, dose 250 mg, dosed compound id 34, dosed compound name GRISEOFULVIN, gender male and female, regimen Single dose, route oral, tissue Plasma
measuredAttribute: Tmax

COC1=CC(=O)C[C@@H](C)[C@]12Oc1c(Cl)c(OC)cc(OC)c1C2=O	4.04 h
